The reader will find reported inhibition in vivo at 10 mg/kg values listed item by item below.
- Test system: Plasmodium berghei
- Experiment description: animal or person
- Format: in vivo, Plasmodium berghei (strain ANKA) in mice
- Experimental context: Plasmodium berghei, sc; single subcutaneous dose of 10 mg/kg, mice, blood smears 48 h after treatment; read-out: Growth inhibition in % after sc administration (GI%, percentage reduction of the parasitemia)
Where a name gives a salt, the structure may show the parent alone.
Provide the reading as a plain figure in %.

Item COc1cc(N[C@H]2CC[C@H](Nc3ccnc4cc(Cl)ccc34)CC2)cc(OC)c1.Cl [Example 90, hydrochloride] has what recorded inhibition in vivo at 10 mg/kg?
60

Similarly, CC(C)c1ccc(CNC(C)(C)CNc2ccnc3cc(Cl)ccc23)cc1.Cl.Cl [Example 50, dihydrochloride] ?
96

Similarly, "CC(C)(CNc1ccnc2cc(Cl)ccc12)NCc1ccc(Cl)c(C(F)(F)F)c1" ?
54

Similarly, CN(C)c1ccc(CN[C@H]2CCCC[C@@H]2Nc2ccnc3cc(Cl)ccc23)cc1.Cl.Cl [Example 66, dihydrochloride] ?
99.6

Similarly, Clc1ccc2c(N[C@H]3CC[C@@H](NCCCc4ccccc4)CC3)ccnc2c1 [Example 20, dihydrochloride] ?
98
